B1: Lysozyme C, P61626 (parent)
chain: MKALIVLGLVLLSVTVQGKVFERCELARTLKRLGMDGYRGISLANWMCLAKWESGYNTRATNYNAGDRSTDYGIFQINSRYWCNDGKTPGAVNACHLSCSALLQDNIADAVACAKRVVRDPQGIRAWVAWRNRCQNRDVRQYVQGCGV

variants of: B1; conditions: Homo sapiens; pH 2.7; Thermal; DSC; glycine 0.05 M; reversible: yes; structure 1LZ1; whole UniProt chain shown
Threshold check on change of melting temperature, mutant - wild type (higher = more stable): at or above -5 °C gives t, strictly below gives f.

Reference set, count: 5
Is it the case that "I77L" has change of melting temperature, mutant - wild type (higher = more stable) reaching or exceeding -5 °C?
t

Is change of melting temperature, mutant - wild type (higher = more stable) at least -5 °C? Consider "I74L"
t

Is the recorded value of change of melting temperature, mutant - wild type (higher = more stable) equal to or greater than -5 °C for this variant? "I74M"
f

Decide: change of melting temperature, mutant - wild type (higher = more stable) of "I77Y" >= -5 °C?
f

Answer whether change of melting temperature, mutant - wild type (higher = more stable) of "I77G" is greater than or equal to -5 °C.
f

Next:
hey, is change of melting temperature, mutant - wild type (higher = more stable) for this one >= -5 °C? "I74V"
t

Please check the record "I74G" and state if its change of melting temperature, mutant - wild type (higher = more stable) is at or above -5 °C.
t

Given the entry "I77S" , answer whether its change of melting temperature, mutant - wild type (higher = more stable) meets or surpasses -5 °C.
f

Has "I77A" a recorded change of melting temperature, mutant - wild type (higher = more stable) greater than or equal to -5 °C?
f

Kindly determine if change of melting temperature, mutant - wild type (higher = more stable) recorded for "I77M" is above or exactly -5 °C.
t

Decide: is the reported value of change of melting temperature, mutant - wild type (higher = more stable) for "I77V" equal to or greater than -5 °C?
t

Say whether "I74F" shows change of melting temperature, mutant - wild type (higher = more stable) of -5 °C or more.
f

Threshold query (change of melting temperature, mutant - wild type (higher = more stable) >= -5 °C) on "I74T"
f

# credit: FireProtDB (doi:10.1093/protein/12.10.841)
